I'd appreciate it if you could supply Max OD450 values for the items below.
Molecular target: T1, his-tagged human CDH6 extracellular region protein (hCDH6 ECD-his) (human, UniProt P55285 19-615)
T1 construct: also called Human CDH6-his; hCDH6-his; not shown: his tag
T1 sequence: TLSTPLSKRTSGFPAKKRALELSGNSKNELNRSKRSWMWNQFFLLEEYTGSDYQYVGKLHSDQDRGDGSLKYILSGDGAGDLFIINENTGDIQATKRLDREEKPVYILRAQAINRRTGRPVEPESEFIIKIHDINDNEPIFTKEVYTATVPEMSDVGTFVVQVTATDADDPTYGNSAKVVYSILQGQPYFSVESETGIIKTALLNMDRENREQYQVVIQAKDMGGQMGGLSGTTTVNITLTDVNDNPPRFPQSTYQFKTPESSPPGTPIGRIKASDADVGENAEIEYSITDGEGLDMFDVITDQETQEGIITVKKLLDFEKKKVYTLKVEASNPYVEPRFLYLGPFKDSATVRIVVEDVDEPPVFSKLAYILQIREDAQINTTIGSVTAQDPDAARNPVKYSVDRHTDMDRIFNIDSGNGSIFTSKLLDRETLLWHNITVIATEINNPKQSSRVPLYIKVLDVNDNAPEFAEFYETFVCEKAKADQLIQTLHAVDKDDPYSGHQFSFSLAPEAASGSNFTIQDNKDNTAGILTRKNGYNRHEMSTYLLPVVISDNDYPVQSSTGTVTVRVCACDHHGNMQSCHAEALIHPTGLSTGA
Test: ELISA, coated antigen; ELISA, coated hCDH6 ECD-his; plateau signal
Answers are plain numbers, in OD450.

Previously resolved entries follow.
binder | quantity_measured | output_unit | observed_result
CHI-CDH6-5 (antibody, human IgG1, kappa, V domains shown, also called CH1-CDH6-5; chimeric antibody of murine CDH6-5) VH: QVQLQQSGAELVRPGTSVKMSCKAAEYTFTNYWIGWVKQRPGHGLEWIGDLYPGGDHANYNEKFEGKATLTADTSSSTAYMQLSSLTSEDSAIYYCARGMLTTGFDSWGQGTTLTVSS VL: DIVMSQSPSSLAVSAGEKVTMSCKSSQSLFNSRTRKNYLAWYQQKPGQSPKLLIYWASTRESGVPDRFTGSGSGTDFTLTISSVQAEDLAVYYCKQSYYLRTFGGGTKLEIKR | Max OD450 | OD450 | 1.79
CHI-CDH6-7 (antibody, human IgG1, kappa, V domains shown, also called CH1-CDH6-7; chimeric antibody of murine CDH6-7) VH: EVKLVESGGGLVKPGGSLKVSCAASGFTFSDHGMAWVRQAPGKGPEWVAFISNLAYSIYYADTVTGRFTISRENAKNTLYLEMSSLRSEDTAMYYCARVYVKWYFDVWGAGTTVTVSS VL: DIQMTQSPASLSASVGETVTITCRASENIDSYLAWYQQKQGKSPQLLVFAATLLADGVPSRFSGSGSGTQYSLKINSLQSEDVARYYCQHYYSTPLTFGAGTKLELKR | Max OD450 | OD450 | 1.78
DS-H01L02 (antibody, human IgG1, kappa, V domains shown, Positive control, variable regions from WO2018212136A1; also called positive control anti-human CDH6 antibody) VH: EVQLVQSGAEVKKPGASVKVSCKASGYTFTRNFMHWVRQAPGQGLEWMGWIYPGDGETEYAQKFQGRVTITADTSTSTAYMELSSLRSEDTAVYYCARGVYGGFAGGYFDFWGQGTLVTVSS VL: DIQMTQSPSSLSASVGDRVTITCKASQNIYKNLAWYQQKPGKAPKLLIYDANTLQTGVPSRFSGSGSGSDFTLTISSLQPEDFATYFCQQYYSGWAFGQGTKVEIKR | Max OD450 | OD450 | 1.89

Recorded result, CHI-CDH6-12 (antibody, human IgG1, kappa, V domains shown, also called CH1-CDH6-12; chimeric antibody of murine CDH6-12) VH: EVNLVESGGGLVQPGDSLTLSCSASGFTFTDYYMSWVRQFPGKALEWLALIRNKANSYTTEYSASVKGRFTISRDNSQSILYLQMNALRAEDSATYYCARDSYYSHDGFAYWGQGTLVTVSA VL: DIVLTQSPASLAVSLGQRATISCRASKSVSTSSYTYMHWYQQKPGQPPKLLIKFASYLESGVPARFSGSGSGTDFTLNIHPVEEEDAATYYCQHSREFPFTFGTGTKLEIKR , Max OD450: 1.82
